Molecular target: furin, P09958;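 also: purified furin at 1:10 enzyme:substrate in 50 mM HEPES pH 7.5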
Sequence (P09958 whole entry): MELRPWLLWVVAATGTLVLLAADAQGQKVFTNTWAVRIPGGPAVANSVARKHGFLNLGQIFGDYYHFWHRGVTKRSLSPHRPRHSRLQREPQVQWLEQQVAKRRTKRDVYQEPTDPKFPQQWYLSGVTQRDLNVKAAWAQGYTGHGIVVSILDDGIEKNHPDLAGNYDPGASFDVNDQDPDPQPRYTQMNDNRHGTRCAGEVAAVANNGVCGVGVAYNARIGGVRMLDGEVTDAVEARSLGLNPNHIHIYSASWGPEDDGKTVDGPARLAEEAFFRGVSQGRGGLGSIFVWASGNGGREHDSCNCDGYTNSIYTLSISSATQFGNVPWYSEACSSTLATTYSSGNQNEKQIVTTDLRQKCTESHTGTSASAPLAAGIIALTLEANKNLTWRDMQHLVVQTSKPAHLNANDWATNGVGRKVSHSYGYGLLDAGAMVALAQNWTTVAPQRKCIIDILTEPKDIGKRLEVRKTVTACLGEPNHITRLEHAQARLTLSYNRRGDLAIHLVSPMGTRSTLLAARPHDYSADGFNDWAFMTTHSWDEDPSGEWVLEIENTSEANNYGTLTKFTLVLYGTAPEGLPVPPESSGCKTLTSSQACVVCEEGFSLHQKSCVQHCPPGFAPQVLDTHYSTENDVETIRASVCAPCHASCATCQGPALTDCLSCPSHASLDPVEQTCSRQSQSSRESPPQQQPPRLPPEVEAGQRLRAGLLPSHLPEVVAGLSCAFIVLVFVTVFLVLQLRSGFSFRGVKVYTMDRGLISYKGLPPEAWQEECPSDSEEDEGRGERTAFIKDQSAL
Experiment: furin cleavage Z-score vs untreated control; higher = more cleavage, active = 3.5 or more, inactive = 1 or less, 8 variable residues between constant flanks
Settings: 7.5 min
Some of the results follow. The hit rate among all sequences tested is not known here.
Could you please pick one outcome from this set? 1 for active, 0 for inactive

Task item: Record request — test call for CAEKVTSTWVAGNASASA [HC2174]
Reply: 0

Task item: Then CADRSRRVRSAGNASASA [FS-1190] ?
Reply: 1

Task item: Try this sequence next: CAHLKRRVRSAGNASASA [FS-793]
Reply: 1

Task item: What would you report for CALLVRKKRKAGNASASA [FS-824] ?
Reply: 1

Task item: What do you get for CAIFWRKKRKAGNASASA [FS-337] ?
Reply: 1

Task item: Now give it for CASGSKKKRKAGNASASA [FS-1278] too.
Reply: 0

Task item: Repeat for the following sequence: CARRRRQAERAGNASASA [FS-2793]
Reply: 1
